Cited source for all entries: PubChem BioAssay AID1259407

# System: CCRIS mutagenicity, Ames/micronucleus/aberration tests
# assay text: CCRIS mutagenicity studies
# condition set: Test System: E. COLI; Strain/Indicator: WP2 (PKM101); Metabolic Activation: RAT, LIVER, S-9, PHENOBARBITAL AND 5,6-BENZOFLAVONE; Method: STANDARD PLATE
Active and inactive are the calls of the source. No rule for the calls is given here.
Mark one answer only. Choices: 1.0 (active), 0.0 (inactive)

Could you kindly confirm the outcome this assay logged for C=CC(=O)OCCO ? 1.0

Could you kindly confirm the outcome this assay logged for CC(O)CO (centres undefined) (tested in a mixture with another compound) ? 1.0

Could you kindly confirm the outcome this assay logged for O/N=C/c1ccncc1 ? 0.0

Could you kindly confirm the outcome this assay logged for O/N=C/c1ccccn1 ? 0.0

====

# Tested on: CCRIS mutagenicity, Ames/micronucleus/aberration tests
# assay text: CCRIS mutagenicity studies
# condition set: Test System: AMES SALMONELLA TYPHIMURIUM; Strain/Indicator: TA98; Metabolic Activation: RAT, LIVER, S-9, AROCLOR 1254 (30%); Method: PREINCUBATION
Activity calls are given as the source filed them. The rule behind the calls is not given here.
Mark one answer only. Choices: yes = active, no = inactive

Could you kindly confirm the outcome this assay logged for O=[N+]([O-])c1ccccc1Nc1ccccc1 ? no

Could you kindly confirm the outcome this assay logged for CCCCCCCCCCCCCCCCCC[N+](C)(C)Cc1ccccc1 ? no

Could you kindly confirm the outcome this assay logged for CCCCOCCOCCSC#N ? no

Could you kindly confirm the outcome this assay logged for COC[CH2][Hg][Cl] ? no

Could you kindly confirm the outcome this assay logged for CCN(N=O)C(N)=O ? yes

Could you kindly confirm the outcome this assay logged for N#CC(O)c1ccccc1 (configuration not stated) ? no

Could you kindly confirm the outcome this assay logged for COc1ccc(N)cc1 ? no

Could you kindly confirm the outcome this assay logged for COC(=O)C(c1ccccc1)C1CCCCN1 (configuration not stated) ? no

Could you kindly confirm the outcome this assay logged for Cc1cccc2cccnc12 ? no

Could you kindly confirm the outcome this assay logged for Clc1ccc(C(Cl)(Cl)Cl)cc1Cl ? yes

Could you kindly confirm the outcome this assay logged for CCN(CC)N=O ? no

Could you kindly confirm the outcome this assay logged for COC(=O)c1ccccc1O ? no

Could you kindly confirm the outcome this assay logged for Nc1ccc2ccccc2c1 ? yes

Could you kindly confirm the outcome this assay logged for CC1OC1C (configuration not stated) ? no

Could you kindly confirm the outcome this assay logged for C=CC(=O)OC ? no

Could you kindly confirm the outcome this assay logged for CCCSC(=O)Cl ? no

Could you kindly confirm the outcome this assay logged for Nc1ccccc1Cl ? no

====

# Test system: CCRIS mutagenicity, Ames/micronucleus/aberration tests
# assay text: CCRIS mutagenicity studies
# condition set: Test System: AMES SALMONELLA TYPHIMURIUM; Strain/Indicator: TA98; Metabolic Activation: HAMSTER, LIVER, S-9, AROCLOR 1254 (10%); Method: PREINCUBATION
The source made the active and inactive calls. No rule for the calls is given here.
Mark one answer only. Choices: YES for active, NO for inactive

Could you kindly confirm the outcome this assay logged for CC(O)CNCC(C)O (centres undefined) ? NO

Could you kindly confirm the outcome this assay logged for CCCCCCC(=O)O ? NO

Could you kindly confirm the outcome this assay logged for O=C1c2c(O)ccc([N+](=O)[O-])c2C(=O)c2c([N+](=O)[O-])ccc(O)c21 ? YES

Could you kindly confirm the outcome this assay logged for COC(=O)C(c1ccccc1)C1CCCCN1 (centres undefined) ? NO

Could you kindly confirm the outcome this assay logged for c1cnc2c(c1)ccc1cccnc12 ? NO

Could you kindly confirm the outcome this assay logged for O=[N+]([O-])c1ccc(Nc2ccc(O)cc2)c([N+](=O)[O-])c1 ? YES

Could you kindly confirm the outcome this assay logged for O=C(Cl)c1ccccc1[N+](=O)[O-] ? YES

Could you kindly confirm the outcome this assay logged for C=CC(=O)OCCCCCCOC(=O)C=C ? NO

Could you kindly confirm the outcome this assay logged for Nc1c(Cl)cc(Cl)cc1Cl ? NO

Could you kindly confirm the outcome this assay logged for COCCOCCOC ? NO

Could you kindly confirm the outcome this assay logged for Nc1cc(Cl)c([N+](=O)[O-])cc1O ? YES

Could you kindly confirm the outcome this assay logged for CCCCCN ? NO

Could you kindly confirm the outcome this assay logged for CC(=O)CC(C)C ? NO

Could you kindly confirm the outcome this assay logged for NS(=O)(=O)c1cc(C(=O)O)c(NCc2ccco2)cc1Cl ? NO

Could you kindly confirm the outcome this assay logged for OCC(O)CCl (centres undefined) ? NO

Could you kindly confirm the outcome this assay logged for COC(=O)c1ccc(C(=O)OC)cc1 ? NO

Could you kindly confirm the outcome this assay logged for Cc1ccccc1OP(=O)(Oc1ccccc1)Oc1ccccc1 ? NO

Could you kindly confirm the outcome this assay logged for CN(C)/N=N/c1nc[nH]c1C(N)=O ? YES

Could you kindly confirm the outcome this assay logged for CCCCCCCCCCCC(=O)[O][Sn]([CH2]CCC)([CH2]CCC)[O]C(=O)CCCCCCCCCCC ? NO

Could you kindly confirm the outcome this assay logged for Nc1cccc(N)c1 ? YES

Could you kindly confirm the outcome this assay logged for ClCCCl ? NO

Could you kindly confirm the outcome this assay logged for NC(=O)N/N=C/c1ccc([N+](=O)[O-])o1 ? YES

Could you kindly confirm the outcome this assay logged for CCN(CC)c1ccc2c(-c3ccccc3C(=O)O)c3ccc(=[N+](CC)CC)cc-3oc2c1 ? NO

Could you kindly confirm the outcome this assay logged for O=C=Nc1ccc(Cc2ccc(N=C=O)cc2)cc1 ? NO

Could you kindly confirm the outcome this assay logged for Cc1ccc(S(=O)(=O)O)cc1C ? NO

Could you kindly confirm the outcome this assay logged for CCCCCCCCCCCCCCCCCC[N+](C)(C)Cc1ccccc1 ? NO

Could you kindly confirm the outcome this assay logged for COc1cc(/C=C/C(=O)CC(=O)/C=C/c2ccc(O)c(OC)c2)ccc1O ? NO

Could you kindly confirm the outcome this assay logged for ClCc1ccccc1 ? NO

Could you kindly confirm the outcome this assay logged for NC(Cc1ccc(F)cc1)C(=O)O (centres undefined) ? NO
